molecular target: AGO2 T357M (Homo sapiens, UniProt Q9UKV8 1-859, T357M;S387D;S824A;S828D;S831D;S834A); experiment: RNA Bind-n-Seq (nitrocellulose filter binding and sequencing); miR-122 guide loaded in AGO2; 60 min incubation; 30 mM Tris pH 8.0, 100 mM potassium acetate, 2 mM magnesium acetate, 0.5 mM TCEP, 0.005% NP-40, 0.01 mg/ml yeast tRNA; 3 nM AGO2-miR-122, 100 nM RNA library; 60; high values mean tight binding; settings: protein: recombinant; tags: His6 (N-terminal, pFastBac HTA)
Sequence (Q9UKV8 whole entry T357M/S387D/S824A/S828D/S831D/S834A): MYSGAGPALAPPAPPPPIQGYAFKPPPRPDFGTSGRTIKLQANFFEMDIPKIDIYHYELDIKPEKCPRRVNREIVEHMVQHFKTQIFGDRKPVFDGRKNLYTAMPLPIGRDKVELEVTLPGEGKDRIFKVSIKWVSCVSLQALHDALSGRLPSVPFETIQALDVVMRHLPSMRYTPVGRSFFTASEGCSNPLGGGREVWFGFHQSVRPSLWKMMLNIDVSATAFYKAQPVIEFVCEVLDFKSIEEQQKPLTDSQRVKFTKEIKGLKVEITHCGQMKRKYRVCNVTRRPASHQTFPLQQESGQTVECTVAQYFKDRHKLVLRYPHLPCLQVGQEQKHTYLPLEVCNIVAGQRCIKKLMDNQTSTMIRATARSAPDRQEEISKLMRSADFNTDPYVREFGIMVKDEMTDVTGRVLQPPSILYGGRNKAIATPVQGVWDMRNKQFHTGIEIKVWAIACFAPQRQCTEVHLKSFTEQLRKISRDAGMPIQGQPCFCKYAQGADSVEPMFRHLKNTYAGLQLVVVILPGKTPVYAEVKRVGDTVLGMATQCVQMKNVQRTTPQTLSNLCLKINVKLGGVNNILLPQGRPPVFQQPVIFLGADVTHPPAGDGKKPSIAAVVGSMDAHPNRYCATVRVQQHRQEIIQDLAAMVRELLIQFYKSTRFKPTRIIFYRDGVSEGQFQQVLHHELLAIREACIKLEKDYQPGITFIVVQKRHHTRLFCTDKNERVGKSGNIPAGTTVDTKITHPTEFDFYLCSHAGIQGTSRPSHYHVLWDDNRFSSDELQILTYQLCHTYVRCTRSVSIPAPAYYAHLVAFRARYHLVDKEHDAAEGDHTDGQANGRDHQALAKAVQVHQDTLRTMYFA
QUANTITY: binding signal

BINDER	REPORTED_RESULT
ACGTCTCG (ssRNA, constant regions annealed to DNA blockers; guide miR-122 5' phosphate) RNA 1: GAGUUCUACAGUCCGACGAUCCCAACACGUCUCGCACCUGGAAUUCUCGGGUGCCAA RNA 2: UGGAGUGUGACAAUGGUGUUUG DNA 1: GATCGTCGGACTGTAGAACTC DNA 2: TTGGCACCCGAGAATTCCA	0.421 fold enrichment over input
GTGTTCCA (ssRNA, constant regions annealed to DNA blockers; guide miR-122 5' phosphate) RNA 1: GAGUUCUACAGUCCGACGAUCCCAACGUGUUCCACACCUGGAAUUCUCGGGUGCCAA RNA 2: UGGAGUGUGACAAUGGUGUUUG DNA 1: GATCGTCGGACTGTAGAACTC DNA 2: TTGGCACCCGAGAATTCCA	0.556 fold enrichment over input
GTATTTTG (ssRNA, constant regions annealed to DNA blockers; guide miR-122 5' phosphate) RNA 1: GAGUUCUACAGUCCGACGAUCCCAACGUAUUUUGCACCUGGAAUUCUCGGGUGCCAA RNA 2: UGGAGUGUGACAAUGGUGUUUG DNA 1: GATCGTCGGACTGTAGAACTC DNA 2: TTGGCACCCGAGAATTCCA	0.514 fold enrichment over input
GCACCCTG (ssRNA, constant regions annealed to DNA blockers; guide miR-122 5' phosphate) RNA 1: GAGUUCUACAGUCCGACGAUCCCAACGCACCCUGCACCUGGAAUUCUCGGGUGCCAA RNA 2: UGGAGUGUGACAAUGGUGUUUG DNA 1: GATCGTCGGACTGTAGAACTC DNA 2: TTGGCACCCGAGAATTCCA	0.566 fold enrichment over input
GCGCCTTG (ssRNA, constant regions annealed to DNA blockers; guide miR-122 5' phosphate) RNA 1: GAGUUCUACAGUCCGACGAUCCCAACGCGCCUUGCACCUGGAAUUCUCGGGUGCCAA RNA 2: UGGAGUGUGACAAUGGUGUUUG DNA 1: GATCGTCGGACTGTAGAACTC DNA 2: TTGGCACCCGAGAATTCCA	0.532 fold enrichment over input

Annotate the binder ATGTTCCA (ssRNA, constant regions annealed to DNA blockers; guide miR-122 5' phosphate) RNA 1: GAGUUCUACAGUCCGACGAUCCCAACAUGUUCCACACCUGGAAUUCUCGGGUGCCAA RNA 2: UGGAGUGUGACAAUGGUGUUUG DNA 1: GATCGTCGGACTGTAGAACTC DNA 2: TTGGCACCCGAGAATTCCA with its measured binding signal.
0.682 fold enrichment over input

Quickly give me recorded binding signal for GCGTCCTG (ssRNA, constant regions annealed to DNA blockers; guide miR-122 5' phosphate) RNA 1: GAGUUCUACAGUCCGACGAUCCCAACGCGUCCUGCACCUGGAAUUCUCGGGUGCCAA RNA 2: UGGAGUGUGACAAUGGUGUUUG DNA 1: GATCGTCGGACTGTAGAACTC DNA 2: TTGGCACCCGAGAATTCCA
0.56 fold enrichment over input

Look up binding signal of GTACCTTA (ssRNA, constant regions annealed to DNA blockers; guide miR-122 5' phosphate) RNA 1: GAGUUCUACAGUCCGACGAUCCCAACGUACCUUACACCUGGAAUUCUCGGGUGCCAA RNA 2: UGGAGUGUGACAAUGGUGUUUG DNA 1: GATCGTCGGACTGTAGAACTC DNA 2: TTGGCACCCGAGAATTCCA and report it.
0.599 fold enrichment over input
